# TARGET OF ASSAY: Potassium channel subfamily K member 3 (Rattus norvegicus) (UniProt O54912)
# Sequence (O54912 whole entry, looked up): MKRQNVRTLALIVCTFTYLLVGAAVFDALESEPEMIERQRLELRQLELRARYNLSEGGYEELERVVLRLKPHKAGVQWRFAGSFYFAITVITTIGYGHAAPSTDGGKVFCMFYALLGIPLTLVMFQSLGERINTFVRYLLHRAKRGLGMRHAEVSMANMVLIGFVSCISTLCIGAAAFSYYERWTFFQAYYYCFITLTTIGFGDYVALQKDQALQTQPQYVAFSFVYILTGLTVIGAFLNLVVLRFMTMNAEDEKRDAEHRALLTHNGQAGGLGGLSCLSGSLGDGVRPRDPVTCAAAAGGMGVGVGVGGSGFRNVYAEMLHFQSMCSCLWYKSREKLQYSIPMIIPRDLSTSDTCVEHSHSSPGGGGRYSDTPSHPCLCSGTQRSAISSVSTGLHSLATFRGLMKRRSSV
# PROCEDURE SUMMARY: KCNK3 channel block by electrophysiology – automated electrophysiology, QPatch, CHO cells, selectivity assay for KCNK9 inhibitor project, SAR follow-up (AID 623915)
# CONDITION DETAILS: CHO-TASK1 cells, QPatch whole-cell current inhibition
READOUT LABEL: IC50

COMPOUND	RECORDED MEASUREMENT
C[C@H](C1CCCCC1)n1c(-c2ccsc2)n[nH]c1=S	6430 nM
CC(C1CC2CCC1C2)n1c(-c2ccco2)n[nH]c1=S (centres undefined)	820 nM
CC(C1CC2CCC1C2)n1c(-c2ccco2)nn(CCc2ccncc2)c1=S (centres undefined)	1850 nM
C[C@@H]([C@@H]1CC2CC[C@H]1C2)n1c(-c2ccco2)n[nH]c1=S	3200 nM
